Experiment: amyloid nucleation score (Sup35N fusion, yeast selection) (log enrichment); library NNK2; higher = more nucleation; inactive = no reads after selection;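 also: zero at mode of non-aggregating sequences after 7 days selection at 30°C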
Label criterion met for high-side amyloid nucleation score (at or above -0.3) and criterion not met for low-side amyloid nucleation score (below it).

Completed entries (count: 8):
IVGTDSQHVLVLQIFCVCLR :: criterion not met
MVIWFPLEIMIRIRSPL :: criterion not met
IYYRVWMSFSFRG :: criterion not met
ESKIACCDMMLW :: criterion met
SRMFVFNVGVIEFWKLGGYN :: criterion not met
FGLLWNNQSWLVARVSCSNL :: criterion met
AEYSSAKGFD :: criterion not met
WVYFHSNNSDLLDNEIKLTR :: criterion met

Check the entry "EVLRYGAVWMISRLVGLSLP" : does amyloid nucleation score equal or exceed -0.3? criterion met

Check the entry "CTHHKCVWGIWSTFSVDSEL" : does amyloid nucleation score equal or exceed -0.3? criterion met

Check the entry "SSYGWSGTC" : does amyloid nucleation score equal or exceed -0.3? criterion not met

Check the entry "NRSLGNHAEYNHASRLKGDS" : does amyloid nucleation score equal or exceed -0.3? criterion not met

Check the entry "IDYQKMLVSDCGD" : does amyloid nucleation score equal or exceed -0.3? criterion met

Check the entry "NWSHELQIQLCAMAYREWSE" : does amyloid nucleation score equal or exceed -0.3? criterion met

Check the entry "GSKDFLV" : does amyloid nucleation score equal or exceed -0.3? criterion met

Check the entry "RTWCPLG" : does amyloid nucleation score equal or exceed -0.3? criterion met

###

Experiment: amyloid nucleation score (Sup35N fusion, yeast selection) (log enrichment); library NNK3; higher = more nucleation; inactive = no reads after selection
property-measured: amyloid nucleation score

See these solved cases before continuing.
SISPVSPGIRAKITTAEMVR :: -0.201
IIEPYTFCFRICVWGGEWIV :: inactive
TAEKSGVGLFGGTSVFLFES :: inactive
YIYSVEEYSRTSLIDDSVGW :: inactive
IMELLQV :: inactive

Consider the substance "FNKNTDRGI" and give its measured amyloid nucleation score. inactive

Consider the substance "TLTWHNVWGCICGKFLTV" and give its measured amyloid nucleation score. inactive

Consider the substance "DFDILGSDHISWWYGRFDKT" and give its measured amyloid nucleation score. inactive

Consider the substance "HFYRLAYTSISWVYRSLGAE" and give its measured amyloid nucleation score. inactive

Consider the substance "IIKWSCYNLSLYHTKCKDAE" and give its measured amyloid nucleation score. inactive

Consider the substance "CYVWSTALCVNISCGSSTAE" and give its measured amyloid nucleation score. 2.7

Consider the substance "THDAVNFVLRHWAITGNTDM" and give its measured amyloid nucleation score. inactive

Consider the substance "TWDICFSTLFLMPRMWFGHL" and give its measured amyloid nucleation score. inactive

###

Test: amyloid nucleation score (Sup35N fusion, yeast selection) (log enrichment); library NNK1; higher = more nucleation; inactive = no reads after selection
Label condition met for high-side amyloid nucleation score (at or above -0.4) and condition not met for low-side amyloid nucleation score (below it).

Completed entries (count: 5):
KKNIWPLYSLRVRLYELAIS :: condition not met
ARFRYVESSRQMSMNVVCLT :: condition met
QFDCPEHKRIHYRGPHPKRK :: condition met
YINLVLGFSYVFLLGLANRM :: condition not met
FYLFVMKDASILYLVCSFSF :: condition not met

Check the entry "WDRTTCVYSLLPMGNSPKVE" : does amyloid nucleation score equal or exceed -0.4? condition met

Check the entry "KIFDMRVESVYWVGRSPSKV" : does amyloid nucleation score equal or exceed -0.4? condition met

Check the entry "INRFTICTFHWTGFALNALS" : does amyloid nucleation score equal or exceed -0.4? condition met

Check the entry "HSVLVVSVVHCGFKQKRNK" : does amyloid nucleation score equal or exceed -0.4? condition met

Check the entry "CFSLWY" : does amyloid nucleation score equal or exceed -0.4? condition met

###

Assay: amyloid nucleation score (Sup35N fusion, yeast selection) (log enrichment); library NNK2; higher = more nucleation; inactive = no reads after selection
Let's look at some substances and their measured amyloid nucleation score.
// no unit, no text: just the number

See these solved cases before continuing.
FHTLRVE :: 1.46
DSLFIACVSLF :: -0.26
LSLTNIYGKSIRDERIKTSC :: -0.129
IIACLTVNYCTGRCATLMFP :: 6.37

Consider the substance "TTSVTGQC" and give its measured amyloid nucleation score. -1.09

Consider the substance "IMCEGSTPDFIIYSCMLLVY" and give its measured amyloid nucleation score. -1.41

###

Test: amyloid nucleation score (Sup35N fusion, yeast selection) (log enrichment); library NNK3; higher = more nucleation; inactive = no reads after selection
property-measured: amyloid nucleation score

See these solved cases before continuing.
TCSTGAGNFCVCDFRLVRMR :: inactive
VFQRVNISVCINVVKFMSSM :: 1.65
DFNLNEVDTDMGFSLSESL :: inactive
CYGALVVQTAYME :: inactive
LQCLNQVRSRLVVLLLIFNV :: inactive
LHHMHYSLKGS :: inactive

Consider the substance "QYSMVVVV" and give its measured amyloid nucleation score. inactive

Consider the substance "SFSVTMPMPIYTTLNGPLTN" and give its measured amyloid nucleation score. inactive

Consider the substance "KYRVGMSSWFNLAHYGNLCG" and give its measured amyloid nucleation score. 0.228

###

Experiment: amyloid nucleation score (Sup35N fusion, yeast selection) (log enrichment); library NNK1; higher = more nucleation; inactive = no reads after selection
Let's look at some sequences and their measured amyloid nucleation score.
// no unit, no text: just the number

See these solved cases before continuing.
IVEFASFSVQVNARNDLHLV :: 1.73
LFMLSSVGASMYFMG :: 1.69
YHGRRVPRDVTNQRTMAQCD :: 3.66
LQYAKRDDIDSDVLLYKMYG :: 0.203
IRGTTRAFLANQGCDVLYTG :: -0.865

Consider the sequence "DYLLCLILAKVWDDSNGSWV" and give its measured amyloid nucleation score. 1.52

Consider the sequence "LQRCAKLYSMSILTYAIIRF" and give its measured amyloid nucleation score. -0.525

###

Test: amyloid nucleation score (Sup35N fusion, yeast selection) (log enrichment); library NNK1; higher = more nucleation; inactive = no reads after selection
property-measured: amyloid nucleation score

YFCSSGWANVMLLLSVQTNR :: 0.173
MDRIRFLFFW :: 0.448
GKEDRIG :: -0.093

Consider the substance "IVSLNGPAKSSAFGKFSGPL" and give its measured amyloid nucleation score. -0.602

Consider the substance "RVDGVKIRGYNWHLLMITCI" and give its measured amyloid nucleation score. 0.083

Consider the substance "KPWLVHMHGSSYNGRADAEV" and give its measured amyloid nucleation score. 0.811

Consider the substance "VVILYIDRFGVLFHHLG" and give its measured amyloid nucleation score. 0.821

Consider the substance "PLSRVLGYVFIISRRTNRIL" and give its measured amyloid nucleation score. -0.206

Consider the substance "CFGKSSVWHRYRFYIGNRAI" and give its measured amyloid nucleation score. -0.613

###

Assay: amyloid nucleation score (Sup35N fusion, yeast selection) (log enrichment); library NNK2; higher = more nucleation; inactive = no reads after selection
Let's look at some substances and their measured amyloid nucleation score.
// no unit, no text: just the number

GFVYQVIITIRHVCSLKRNR :: 0.76
ETSANDLEPNLSVHHSGFSR :: 0.078
GSGFLFFSVF :: 0.353
RTSKPLRRMNQRGLDFACAL :: 1.04
PKSYWLSISRLKPVSQYYLR :: 1.21
TYPAHFVWLCNCCVDKYSLS :: 2.79
SPRRFLMKQGIHQVTLAHCH :: -0.342
CHNYELCCRLFNSFSTNQIA :: -0.468

# next substance below
Consider the substance "YAVENTLYHVRVVTLQSISW" and give its measured amyloid nucleation score. 0.153

###

Experiment: amyloid nucleation score (Sup35N fusion, yeast selection) (log enrichment); library NNK1; higher = more nucleation; inactive = no reads after selection
property-measured: amyloid nucleation score
// no unit, no text: just the number

See these solved cases before continuing.
SMRSNWPGYCTRNGFTLSLL :: -0.684
RFLPVLVSIINKRQGGYDF :: 0.064
NQIFVQCSVGKAWDRSKSVD :: 4.12
NSSPNKCFAGSQGSFISFWD :: -0.599
SFLLGQGTL :: 0.724

Consider the substance "TFIVQPFLTENPIASRFESA" and give its measured amyloid nucleation score. 0.063

Consider the substance "SSCVTFSYMKSVFRFLPCWW" and give its measured amyloid nucleation score. 1.96

Consider the substance "LLISDAVVYLFWTPENHSTW" and give its measured amyloid nucleation score. 1.2

Consider the substance "AVVMTLIVYALGYT" and give its measured amyloid nucleation score. 1.27

Consider the substance "VHTINRTQLYNIH" and give its measured amyloid nucleation score. -0.215

Consider the substance "SRHVLLPISFGTV" and give its measured amyloid nucleation score. 0.377

Consider the substance "RILYMYWVFMVLFMTPRCLD" and give its measured amyloid nucleation score. -0.099

Consider the substance "HYLISSCWIIRSGWADGTGR" and give its measured amyloid nucleation score. 1.01

Consider the substance "DVREITCLSHKRTRHQVHPV" and give its measured amyloid nucleation score. 0.07

Consider the substance "LTMLYMLLCDNSLMRDILPD" and give its measured amyloid nucleation score. 0.951

Consider the substance "PTVYSDYTCSTFMWISD" and give its measured amyloid nucleation score. 0.299

Consider the substance "ANELFTVDKKSVGYIPTHTL" and give its measured amyloid nucleation score. 0.445

Consider the substance "KFIVMIE" and give its measured amyloid nucleation score. 0.386

Consider the substance "SSLWTCREVTDIFIHNCAMI" and give its measured amyloid nucleation score. 1.21

Consider the substance "VDSVLIWIMFAAMGSKCPG" and give its measured amyloid nucleation score. 1.77
